Entries and their measured Melting point (onset) follow.
assay: Differential Scanning Calorimetry (DSC); assay type: physicochemical; details: * = multiple thermal events

Reference set (3 entries):
{"columns": ["compound", "Melting point (onset)"],
 "data": [
  ["O=C(O)c1ccc(O)cc1O.O=C(O)c1ccc(O)cc1O.O=C1C[C@H](c2cc(F)c(F)c(F)c2)CN1Cn1ncnc1Cl [2,4-DHBA Pattern 1]", "138.2 °C"],
  ["O=C(O)c1cc(O)cc(O)c1.O=C1C[C@@H](c2cc(F)c(F)c(F)c2)CN1Cn1ncnc1Cl [ARP-1725-71-02C]", "113.3 °C"],
  ["O=C(O)c1ccc(O)cc1.O=C1C[C@H](c2cc(F)c(F)c(F)c2)CN1Cn1ncnc1Cl [4-HBA Pattern 1]", "87.7° C.*"]
]}

// next item, Melting point (onset) requested
Exercise: So what's the measured Melting point (onset) for this one? O=C1C[C@H](c2cc(F)c(F)c(F)c2)CN1Cn1ncnc1Cl [API]
Key: 85.3 °C
